Data origin: paper PMC12249905

# targetDesc: human TOP3B (Homo sapiens, UniProt O95985)
# Construct: GST (N); 6xHis (C); E. coli Rosetta(DE3) (TDRD3, made in house)
# Sequence (O95985 1-862): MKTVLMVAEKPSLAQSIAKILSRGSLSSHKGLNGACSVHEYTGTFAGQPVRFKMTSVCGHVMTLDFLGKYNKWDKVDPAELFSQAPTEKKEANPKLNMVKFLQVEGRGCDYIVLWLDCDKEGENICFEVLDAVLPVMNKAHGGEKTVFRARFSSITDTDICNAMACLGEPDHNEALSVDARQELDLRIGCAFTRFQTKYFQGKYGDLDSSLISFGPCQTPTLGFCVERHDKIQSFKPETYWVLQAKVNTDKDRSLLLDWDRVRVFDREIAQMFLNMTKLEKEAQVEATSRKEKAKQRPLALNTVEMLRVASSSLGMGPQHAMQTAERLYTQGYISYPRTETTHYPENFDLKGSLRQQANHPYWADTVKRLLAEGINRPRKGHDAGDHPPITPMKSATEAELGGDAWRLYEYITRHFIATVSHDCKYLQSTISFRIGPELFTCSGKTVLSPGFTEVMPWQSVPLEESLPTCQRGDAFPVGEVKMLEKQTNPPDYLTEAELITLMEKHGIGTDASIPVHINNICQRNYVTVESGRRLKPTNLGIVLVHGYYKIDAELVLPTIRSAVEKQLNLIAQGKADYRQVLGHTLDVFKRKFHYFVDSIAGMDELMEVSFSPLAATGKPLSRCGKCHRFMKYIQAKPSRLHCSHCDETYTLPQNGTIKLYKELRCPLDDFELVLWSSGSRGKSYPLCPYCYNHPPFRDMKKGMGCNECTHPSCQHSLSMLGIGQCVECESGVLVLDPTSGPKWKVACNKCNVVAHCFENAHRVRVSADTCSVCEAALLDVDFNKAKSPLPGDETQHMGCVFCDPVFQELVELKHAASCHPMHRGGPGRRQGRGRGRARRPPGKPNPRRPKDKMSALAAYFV
# experimentDescription: Assay of inhibition of human TOP3B relaxation activity (chloroquine gel electrophoresis, TDRD3 present)
# recordedConditions: DNA relaxation, 18 nM TOP3B and TDRD3, supercoiled pBAD/Thio plasmid, 37 °C 1 h
measurementLabel: pIC50
Reminder that pIC50 means the negative base-10 logarithm of the concentration expressed in mol/L.

* CC(C)C[C@H](N)C(=O)n1nc(Nc2ccccc2/C=C/C(N)=O)nc1N | 4.46

// moving on: another record for pIC50
Problem: Name the recorded pIC50 for `Nc1nc(Nc2ccc3c(c2)CC[C@@H](N2CCCC2)CC3)nn1-c1cc2c(nn1)-c1ccccc1CCC2` .
Solution: 4.46
